// data source = patent US12564638B2

# log10(IC50) values compiled below
tested on: PC9 cells (EGFR Exon 19 del, non-small cell lung cancer cells); assay: Cell viability assay (WST/CCK8), PC9 cells; format: cell-based; details: Homo sapiens, PC-9; PC9 (Exon19 Del), 72 hours, WST (CCK8); read-out: IC50 (half inhibitory concentration)
PROPERTY MEASURED: log10(IC50) (log10 of the value in nM)

[
  {
    "MOLECULE": "COc1cc2ncnc(Nc3ccc(F)c(Cl)c3)c2cc1NC(=O)/C=C/CN1CCC(N2CCN(C(=O)CCCCCSc3cccc4c3C(=O)N(C3CCC(=O)NC3=O)C4=O)CC2)CC1 (stereo not shown) [SIAIS262032]",
    "MEASURED RESULT": 1.64
  },
  {
    "MOLECULE": "COc1cc2ncnc(Nc3ccc(F)c(Cl)c3)c2cc1NC(=O)/C=C/CN1CCC(N2CCN(C(=O)CCN3CCN(CCC(=O)N[C@H](C(=O)N4C[C@H](O)C[C@H]4C(=O)NCc4ccc(-c5scnc5C)cc4)C(C)(C)C)CC3)CC2)CC1 [SIAIS249105]",
    "MEASURED RESULT": 1.78
  },
  {
    "MOLECULE": "COc1cc2ncnc(Nc3ccc(F)c(Cl)c3)c2cc1NC(=O)/C=C/CN1CCC(N2CCN(C(=O)CCCCCCOc3cccc4c3CN(C3CCC(=O)NC3=O)C4=O)CC2)CC1 (stereo not shown) [SIAIS337028]",
    "MEASURED RESULT": 1.31
  },
  {
    "MOLECULE": "COc1cc2ncnc(Nc3ccc(F)c(Cl)c3)c2cc1NC(=O)/C=C/CN1CCN(C(=O)CCC(=O)N[C@H](C(=O)N2C[C@H](O)C[C@H]2C(=O)NCc2ccc(-c3scnc3C)cc2)C(C)(C)C)CC1 [SIAIS249041]",
    "MEASURED RESULT": 2.00
  },
  {
    "MOLECULE": "COc1cc2ncnc(Nc3ccc(F)c(Cl)c3)c2cc1NC(=O)/C=C/CN1CCC(NC(=O)CCCCCCCCCCSc2cccc3c2CN(C2CCC(=O)NC2=O)C3=O)CC1 (stereo not shown) [SIAIS262118]",
    "MEASURED RESULT": 0.58
  },
  {
    "MOLECULE": "COc1cc2ncnc(Nc3ccc(F)c(Cl)c3)c2cc1NC(=O)/C=C/CN1CCN(C(=O)CCCCSc2cccc3c2CN(C2CCC(=O)NC2=O)C3=O)CC1 (stereo not shown) [SIAIS219188]",
    "MEASURED RESULT": 1.40
  },
  {
    "MOLECULE": "COc1cc2ncnc(Nc3ccc(F)c(Cl)c3)c2cc1NC(=O)/C=C/CN1CCN(C(=O)CCCCNc2cccc3c2C(=O)N(C2CCC(=O)NC2=O)C3=O)CC1 (stereo not shown) [SIAIS249048]",
    "MEASURED RESULT": 1.01
  },
  {
    "MOLECULE": "COc1cc2ncnc(Nc3ccc(F)c(Cl)c3)c2cc1NC(=O)/C=C/CN1CCN(C(=O)CSc2cccc3c2CN(C2CCC(=O)NC2=O)C3=O)CC1 (stereo not shown) [SIAIS219185]",
    "MEASURED RESULT": 1.37
  },
  {
    "MOLECULE": "COc1cc2ncnc(Nc3ccc(F)c(Cl)c3)c2cc1NC(=O)/C=C/CN1CCC(N2CCN(CCCC#Cc3cccc4c3CN(C3CCC(=O)NC3=O)C4=O)CC2)CC1 (stereo not shown) [SIAIS262050]",
    "MEASURED RESULT": 1.00
  },
  {
    "MOLECULE": "COc1cc2ncnc(Nc3ccc(F)c(Cl)c3)c2cc1NC(=O)/C=C/CN1CCC(N2CCN(CCCCCCSc3cccc4c3CN(C3CCC(=O)NC3=O)C4=O)CC2)CC1 (stereo not shown) [SIAIS262065]",
    "MEASURED RESULT": 2.27
  }
]
